# Test system: CAKI-1 renal
# test_summary: NCI tumour cell line growth inhibition, 48 h
quantity_kind: TGI (µM)
Response body: numeric value in µM, unit text excluded.

Fill in the blank: the reported TGI of Cc1ccc(C2OC(COCc3ccc(Cl)cc3)C(OCc3ccc(Cl)cc3)C2O)cc1 (stereo unspecified) is ____.
38.3

Please give the measured TGI for this compound: OCc1ccc(N2CCCC2c2ccccc2)cc1Cl (stereo unspecified)
17.4

Returns the measured TGI for the input compound. Input: "COc1cccc(OC(=O)c2ccc(C(F)(F)F)nc2Nc2cc(Cl)ccc2C)c1"
36.1

----------
# Tested on: MCF7 breast
# test_summary: NCI tumour cell line growth inhibition, 48 h
quantity_kind: TGI (µM)
The figure you give is taken to be in µM; do not add the unit.

Endpoint output: TGI of "CN1CCN(C(=O)c2cc(-c3ccc4ncnc(N5CCc6cc(F)c(Cl)cc65)c4c3)cnc2N)CC1" . Value?
1.89

What value of measured TGI is listed for "O=c1[nH]cc(-c2c[nH]c3ccccc23)nc1-c1c[nH]c2ccccc12" ?
54.7
